# testedTarget: Cytochrome P450 2D6 (Homo sapiens)
# assayRemarks: Cytochrome panel assay with activity outcomes
# condition: recombinant CYP, pro-luciferin dealkylation, luminescence, p450-cyp2d6; series mostly up to 57.1 µM
Among all 16,000 compounds or so, about 2,600 (16%) were called active. Another 20% or so got no clear call; they are omitted. Calls follow the shape of the dose curve; as a rule, active = well fitted curve in the direction sought with a large enough effect; inconclusive = small, poorly fitted or top-dose-only effect, or effect the other way; inactive = no such curve, though single readings can be large or run the other way. These entries were drawn from the full list.
Hello, when you answer, please use one of the following outcomes: active, inactive

For orientation, consider the following solved cases.
INSERT INTO results (structuresmiles, labelvalue) VALUES
  ('CCOC(=O)CCCNC(=O)CCCNC(=O)C(c1ccccc1)c1ccccc1', 'active'),
  ('CCOC(=O)CNC(=O)c1cccnc1', 'inactive'),
  ('COc1cc(CNn2nnnc2N)ccc1OCc1c(Cl)cccc1Cl', 'inactive');

Q. Tell me the assay call for CCOC(=O)CCCNC(=O)c1cncc(Br)c1 please.
A. inactive

Q. Tell me the assay call for COc1ccccc1-n1c(SCC(=O)N2CCCC2)nc2cccnc21 please.
A. inactive

Q. Tell me the assay call for COc1cc(CNCCN2CCOCC2)ccc1OCc1ccccc1Cl please.
A. active

----------
# testedTarget: Cytochrome P450 2D6 (Homo sapiens) (UniProt P10635)
# Sequence (P10635 whole entry, looked up): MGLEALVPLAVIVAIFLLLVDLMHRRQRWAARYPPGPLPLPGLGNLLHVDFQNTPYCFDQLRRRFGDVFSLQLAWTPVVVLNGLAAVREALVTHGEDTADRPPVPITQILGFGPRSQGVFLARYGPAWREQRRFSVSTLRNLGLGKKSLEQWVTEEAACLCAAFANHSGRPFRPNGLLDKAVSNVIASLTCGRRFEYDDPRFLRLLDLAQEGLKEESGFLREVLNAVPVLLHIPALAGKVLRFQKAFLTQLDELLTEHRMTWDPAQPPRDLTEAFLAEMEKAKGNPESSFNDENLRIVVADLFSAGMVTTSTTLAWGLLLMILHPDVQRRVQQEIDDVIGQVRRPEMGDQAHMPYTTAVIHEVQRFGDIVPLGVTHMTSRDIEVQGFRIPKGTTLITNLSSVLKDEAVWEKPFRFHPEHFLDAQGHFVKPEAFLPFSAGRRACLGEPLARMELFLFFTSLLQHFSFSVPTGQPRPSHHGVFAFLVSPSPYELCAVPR
# assayRemarks: Cytochrome panel assay with activity outcomes
# condition: recombinant CYP, pro-luciferin dealkylation, luminescence, p450-cyp2d6; series mostly up to 57.1 µM
Screen size: about 16,000 compounds; about 2,600 (16%) were called active. Another 20% or so got no clear call; they are omitted. These entries were drawn from the full list.
reportedProperty: AC50

INSERT INTO measurements (molecule, valueobserved) VALUES
  ('COc1ccccc1N1CCN(C[C@@H]2CN3C(=O)N(C)c4ccccc4C3=N2)CC1', 'inactive'),
  ('CCCCNC(=O)NS(=O)(=O)c1cnccc1Sc1ccc(Cl)cc1', 'inactive'),
  ('CCN(CC)C(=O)Cn1cnc([N+](=O)[O-])n1', 'inactive'),
  ('c1ccc(CNc2ccnc(-c3ccc4c(c3)OCO4)n2)cc1', '1580 nM (active)'),
  ('O=C(CCN1C(=O)/C(=C/c2cccc(Br)c2)SC1=S)NNC(=O)c1cccnc1', 'inactive');

Q. Give a short answer stating reported AC50 for COCCOC(=O)C1=C(C)NC(=O)N(C(C)=O)C1c1ccc(Cl)cc1 (configuration not stated) .
A. inactive

----------
# testedTarget: Cytochrome P450 2D6 (Homo sapiens) (UniProt P10635)
# assayRemarks: Cytochrome panel assay with activity outcomes
# condition: recombinant CYP, pro-luciferin dealkylation, luminescence, p450-cyp2d6; series mostly up to 57.1 µM
Hit rate of the full screen: of about 16,000 compounds, about 2,600 (16%) were called active. Not shown: some 20% with an inconclusive outcome. Calls follow the shape of the dose curve; as a rule, active = well fitted curve in the direction sought with a large enough effect; inconclusive = small, poorly fitted or top-dose-only effect, or effect the other way; inactive = no such curve, though single readings can be large or run the other way. Not all results are given here.
Hello, when you answer, please use one of the following outcomes: t (active), f (inactive)

For orientation, consider the following solved cases.
INSERT INTO measurements (compound, labelvalue) VALUES
  ('CN1CCN(c2ncc3ncc(=O)n(Cc4cccs4)c3n2)CC1', 'f'),
  ('COc1ccccc1CC(=O)O/N=C(\N)c1cccc([N+](=O)[O-])c1', 'f'),
  ('COCC(=O)N1CCC2(CCCN(C(=O)Nc3cccc(C#N)c3)C2)CC1', 'f'),
  ('COc1cc(C(=O)N2CCN(C(=O)c3ccccc3)CC2)cc(OC)c1OC', 'f');

Q. Tell me the assay call for Cn1c(=O)c2c(nc(N3CCN(c4ccccn4)CC3)n2Cc2ccc(Cl)cc2Cl)n(C)c1=O please.
A. f

Q. Tell me the assay call for O=C(Nc1cccc(F)c1)N1CC[C@@]2(CCCN(C(=O)c3cc(C(F)(F)F)cc(C(F)(F)F)c3)C2)C1 please.
A. f

Q. Tell me the assay call for O=C(c1cn(-c2ccccc2)nc1-c1cccs1)N1CCOCC1 please.
A. f

Q. Tell me the assay call for Cc1ccc(C(=O)N/C(=C/C=C/c2ccccc2)C(=O)NCc2ccco2)cc1 please.
A. f

Q. Tell me the assay call for CCCCOC(=O)Nc1ccc(C)c(Cl)c1 please.
A. f

Q. Tell me the assay call for CN1CCc2cc(NC(=O)Nc3cccnc3)ccc21 please.
A. t

Q. Tell me the assay call for Cc1ccccc1NC1=NC(=S)N(c2ccccc2)C12CCOC(C)(C)C2 (centres undefined) please.
A. f

Q. Tell me the assay call for COc1cccc(Nc2ncc3nc(-c4cc(F)cc(F)c4)c(=O)n(CCC#N)c3n2)c1 please.
A. f

Q. Tell me the assay call for COc1ccccc1NC(=O)Nc1nnc(-c2ccco2)s1 please.
A. f

Q. Tell me the assay call for O=C(Nc1cccc(F)c1)N1CCC2(CC1)CCN(C(=O)c1cnccn1)CC2 please.
A. f

Q. Tell me the assay call for CC(=O)Oc1ccccc1C(=O)Oc1ccccc1C(=O)O please.
A. f

Q. Tell me the assay call for Cc1ccc(OCC(=O)Nc2ccc(Cl)cc2)c(-n2nc3ccccc3n2)c1 please.
A. f

Q. Tell me the assay call for Cc1nc(C(=O)Nc2cccc(Cl)c2Cl)nn1-c1cc(OC(C)C)c(Cl)cc1Cl please.
A. f

Q. Tell me the assay call for O=C(c1cc(C(F)(F)F)cc(C(F)(F)F)c1)N1CCC[C@@]2(CCN(Cc3ccccc3)C2)C1 please.
A. t

Q. Tell me the assay call for Cc1[nH]n(C(C)(C)C)c(=O)c1Sc1ccc(Cl)cc1 please.
A. f

Q. Tell me the assay call for COc1cc2c(cc1C(F)(F)F)N(C(=O)Nc1cc(F)cc(-c3cccnc3)c1)CC2 please.
A. f

Q. Tell me the assay call for CNC(=O)COC(=O)c1cc2c(C)nn(-c3ccc(F)cc3)c2s1 please.
A. f

Q. Tell me the assay call for COc1cc(C)ccc1OCCCOc1ccccc1Cl please.
A. f

----------
# testedTarget: Cytochrome P450 2D6 (Homo sapiens) (UniProt P10635)
# assayRemarks: Cytochrome panel assay with activity outcomes
# condition: recombinant CYP, pro-luciferin dealkylation, luminescence, p450-cyp2d6; series mostly up to 57.1 µM
The whole screen tested about 16,000 compounds, of which about 2,600 (16%) were called active. Roughly 20% stayed inconclusive and do not appear here. Calls come from the whole dose curve; as a rule, active = well fitted curve in the direction sought with a large enough effect; inconclusive = small, poorly fitted or top-dose-only effect, or effect the other way; inactive = no such curve, though single readings can be large or run the other way. Only a sample is shown.
Hello, when you answer, please use one of the following outcomes: active, inactive

INSERT INTO results (compound, labelvalue) VALUES
  ('CCC1=NN(C(=O)CCc2ccccc2)C(O)(C(F)(F)F)C1 (stereo unspecified)', 'inactive');

Q. Tell me the assay call for CN(C)CCOC(=O)[C@@H](c1ccccc1)C1(O)CCCC1 please.
A. inactive

Q. Tell me the assay call for CCn1cc(C(=O)O)c(=O)c2cc(F)c(N3CCNCC3)nc21 please.
A. inactive

Q. Tell me the assay call for CC(C)NC(=O)/C(=N\O)c1ccccc1 please.
A. inactive

Q. Tell me the assay call for Cn1nnnc1SCC(=O)Nc1ccccc1[N+](=O)[O-] please.
A. inactive

Q. Tell me the assay call for CCN(CC)CCOC(=O)[C@@H](c1ccccc1)C1CCCCC1 please.
A. active

----------
# testedTarget: Cytochrome P450 2D6 (Homo sapiens)
# assayRemarks: Cytochrome panel assay with activity outcomes
# condition: recombinant CYP, pro-luciferin dealkylation, luminescence, p450-cyp2d6; series mostly up to 57.1 µM
Out of some 16,000 compounds screened, about 2,600 (16%) were called active. Another 20% or so got no clear call; they are omitted. Calls come from the whole dose curve; as a rule, active = well fitted curve in the direction sought with a large enough effect; inconclusive = small, poorly fitted or top-dose-only effect, or effect the other way; inactive = no such curve, though single readings can be large or run the other way. These entries were drawn from the full list.
Hello, when you answer, please use one of the following outcomes: active, inactive

For orientation, consider the following solved cases.
INSERT INTO results (compound, labelvalue) VALUES
  ('O=C(NC1CCCCC1)C(c1cccs1)N(Cc1cccs1)C(=O)c1ccco1 (stereo not given)', 'active'),
  ('Cc1cc(C)cc(N(C(=O)Cc2cccs2)C(C(=O)NC2CCCCC2)c2ccccn2)c1 (stereo not given)', 'inactive'),
  ('CC(C)c1ccc(N(C(=O)C(F)(F)F)C(C(=O)NC2CCCCC2)c2ccncc2)cc1 (stereo not given)', 'inactive'),
  ('Cc1cc(C)cc(N(C(=O)c2ccccn2)C(C(=O)NC2CCCCC2)c2cccs2)c1 (stereo not given)', 'inactive'),
  ('Cc1nn(C)cc1C(C(=O)NC1CCCCC1)N(C(=O)Cc1cccs1)c1ccc(C(C)C)cc1 (stereo not given)', 'inactive');

Q. Tell me the assay call for O=C(NC1CCCCC1)C(c1cccs1)N(C(=O)C(F)(F)F)c1ccccc1 (stereo not given) please.
A. active

Q. Tell me the assay call for Cc1ccc(C(OC(=O)c2ccco2)C(=O)NC2CCCCC2)cc1 (stereo not given) please.
A. inactive

Q. Tell me the assay call for c1ccc(-c2nc3ccccc3o2)nc1 please.
A. inactive

Q. Tell me the assay call for C=CCNC(=S)NNc1ncnc2sc3c(c12)CC(C)(C)OC3 please.
A. inactive

Q. Tell me the assay call for COc1ccc(N(C)S(=O)(=O)c2ccc3c(c2)CCC(=O)N3)cc1 please.
A. inactive

----------
# testedTarget: Cytochrome P450 2D6 (Homo sapiens) (UniProt P10635)
# assayRemarks: Cytochrome panel assay with activity outcomes
# condition: recombinant CYP, pro-luciferin dealkylation, luminescence, p450-cyp2d6; series mostly up to 57.1 µM
Among all 16,000 compounds or so, about 2,600 (16%) were called active. Inconclusive results (about 20%) are left out. The list is a sample of the results.
reportedProperty: AC50

INSERT INTO results (structuresmiles, valueobserved) VALUES
  ('CCCCCn1c(CN2CCN(c3cc(Cl)ccc3C)CC2)nc2c1c(=O)[nH]c(=O)n2C', '8.91 µM (active)'),
  ('COc1ccc(N2CCN(Cc3nc4c(c(=O)[nH]c(=O)n4C)n3CCCc3ccccc3)CC2)cc1', 'inactive'),
  ('CSc1nncc(-c2ccc(F)c(F)c2)n1', 'inactive'),
  ('CCN(CCO)Cc1csc2cccc(Br)c12', '15.8 µM (active)');

Q. Give a short answer stating reported AC50 for COc1ccc2[nH]cc(CCNc3ccnc(-c4ccccc4C)n3)c2c1 .
A. 2.51 µM (active)

Q. Give a short answer stating reported AC50 for CC(C)n1c(N2CCN(C(=O)Nc3ccccc3)CC2)nc2ccccc21 .
A. inactive

Q. Give a short answer stating reported AC50 for CCOC(=O)N1CCN(Cc2nc3c(c(=O)[nH]c(=O)n3C)n2Cc2ccccc2C)CC1 .
A. 12.6 µM (active)

Q. Give a short answer stating reported AC50 for CN1CCN(c2ncc3nc(-c4ccc(Cl)cc4)c(=O)n(C4CC4)c3n2)CC1 .
A. inactive

Q. Give a short answer stating reported AC50 for CC(C)CN1CCCC2(CCN(C(=O)c3cc(C(F)(F)F)cc(C(F)(F)F)c3)CC2)C1 .
A. 10 µM (active)

Q. Give a short answer stating reported AC50 for COC(=O)Cn1c(CN(Cc2ccccc2)Cc2ccccc2)nc2c1c(=O)[nH]c(=O)n2C .
A. inactive

Q. Give a short answer stating reported AC50 for COCCNc1ccnc(-c2ccccc2C)n1 .
A. inactive
